These records show IC50 for Acetylcholinesterase (Homo sapiens).
Kindly answer with a numeric value in µM, unit omitted.

Below are worked cases with known answers.
{"columns": ["compound", "result.units", "IC50"],
 "data": [
  ["COc1cc(C2Oc3c(OC)cc(CCCO)cc3C2CO)ccc1O[C@@H]1OC(CO)[C@@H](O)C(O)[C@@H]1O (some centres not stated)", "µM", 92.8],
  ["O=c1c(O[C@@H]2O[C@H](CO)[C@@H](O)[C@H](O)[C@H]2O)c(-c2ccc(O)cc2)oc2cc(O)cc(O)c12 [Kaempferol 3-O-β-D-glucoside (6)]", "µM", 89.6],
  ["O=C(O)[C@H]1O[C@@H](Oc2cc(O)c3c(=O)cc(-c4ccc(O)cc4)oc3c2)[C@H](O)[C@@H](O)[C@@H]1O", "µM", 63],
  ["O=C(OCCCCOc1cc(O)c2c(=O)cc(-c3ccc(O)c(O)c3)oc2c1)[C@H]1O[C@@H](O)[C@H](O)[C@@H](O)[C@@H]1O", "µM", 76.9]
]}

**Q:** Retrieve IC50 on Acetylcholinesterase (Homo sapiens); query O=c1c(O)c(-c2ccc(O)c(O)c2)oc2cc(O)cc(O)c12
Sequence (P22303 whole entry): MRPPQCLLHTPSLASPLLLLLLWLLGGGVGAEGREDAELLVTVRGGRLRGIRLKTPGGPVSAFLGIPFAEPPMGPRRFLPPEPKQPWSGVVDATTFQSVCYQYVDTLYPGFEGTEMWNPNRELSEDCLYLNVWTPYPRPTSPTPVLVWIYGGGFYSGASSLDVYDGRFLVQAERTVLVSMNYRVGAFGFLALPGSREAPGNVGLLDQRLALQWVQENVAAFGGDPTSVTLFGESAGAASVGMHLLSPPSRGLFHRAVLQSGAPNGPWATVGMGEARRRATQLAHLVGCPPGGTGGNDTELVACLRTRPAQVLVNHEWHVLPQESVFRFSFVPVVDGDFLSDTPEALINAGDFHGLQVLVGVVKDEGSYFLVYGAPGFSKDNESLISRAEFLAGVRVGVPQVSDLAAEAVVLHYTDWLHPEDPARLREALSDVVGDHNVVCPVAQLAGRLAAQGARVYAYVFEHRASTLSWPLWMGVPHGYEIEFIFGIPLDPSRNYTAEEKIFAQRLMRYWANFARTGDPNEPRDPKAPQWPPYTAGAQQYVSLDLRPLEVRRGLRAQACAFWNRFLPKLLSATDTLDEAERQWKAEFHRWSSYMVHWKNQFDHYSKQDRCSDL
**A:** 72.8

**Q:** Retrieve IC50 on Acetylcholinesterase (Homo sapiens); query O=c1c(O)c(-c2ccc(O)cc2)oc2cc(O[C@@H]3O[C@H](CO)[C@@H](O)[C@H](O)[C@H]3O)cc(O)c12 [Kaempferol 7-O-β-D-glucoside (4)]
**A:** 63.9

**Q:** Retrieve IC50 on Acetylcholinesterase (Homo sapiens); query O=C(O)[C@H]1O[C@@H](Oc2cc(O)c3c(=O)c(O)c(-c4ccc(O)cc4)oc3c2)[C@H](O)[C@@H](O)[C@@H]1O [Kaempferol 7-O-β-D-glucuronide (5)]
**A:** 64

**Q:** Retrieve IC50 on Acetylcholinesterase (Homo sapiens); query O=C(O[C@H]1OC(CO)[C@@H](O)[C@@H]2OC(=O)c3cc(O)c(O)c(c3O)-c3c(O)c(O)cc(c3O)C(=O)OC12)c1cc(O)c(O)c(O)c1 (some centres not stated)
**A:** 60.2
